meta.source: ChEMBL document CHEMBL5584343

Can you tell me EC50 for the items I'm about to list?
test: Inhibition of wildtype Acinetobacter baumannii MsbA preincubated for 30 mins followed by ATP addition and measured after 1 hrs by Transcreener ADP2 F1 assay
Answer in nM, number only, no unit symbol.

Which value of EC50 has been reported for CCCCc1ccc(S(=O)(=O)Nc2ccc(NC(=O)CCC(=O)Nc3ccc(NS(=O)(=O)c4ccc(CCCC)cc4)c(C(=O)O)c3)cc2C(=O)O)cc1 in the records?
49

// lookup EC50 for O=C(O)c1cc(CN[C@H]2C[C@@H](NCc3ccc(NS(=O)(=O)c4cnn(-c5ccc(Cl)cc5)c4)c(C(=O)O)c3)C2)ccc1NS(=O)(=O)c1cnn(-c2ccc(Cl)cc2)c1
1290

May I ask what EC50 has been recorded for CCCCc1ccc(S(=O)(=O)Nc2ccc(NC(=O)CCC(=O)Nc3ccc(NS(=O)(=O)c4ccc(CCCC)cc4)c(C(=O)O)c3)cc2C#N)cc1 ?
1600

---

assay: Inhibition of wildtype Acinetobacter baumannii MsbA preincubated for 30 mins followed by ATP addition and measured after 1 hrs by Transcreener ADP2 F1 assay
Hi there, I'd appreciate the recorded pEC50 for every entry that follows.
Kindly note that pEC50 refers to -log10 of the concentration in mol/L and answer with the value alone.

Look up pEC50 for this compound: CCCCc1ccc(S(=O)(=O)Nc2ccc(NC(=O)CCC(=O)Nc3ccc(NS(=O)(=O)c4ccc(CCCC)cc4)c(C(=O)O)c3)cc2)cc1
6.10

For the compound shown here, O=C(O)c1cc(CN2CC(Oc3ccc(NS(=O)(=O)c4ccc(-c5ccc(F)cc5)s4)c(C(=O)O)c3)C2)ccc1NS(=O)(=O)c1cnn(-c2ccc(F)cc2)c1 , give the reported pEC50.
8.14

// returns reported pEC50 for input CCCCc1ccc(S(=O)(=O)Nc2ccc(NC(=O)CCC(=O)Nc3ccc(NS(=O)(=O)c4ccc(Oc5ccccc5)nc4)c(C(=O)O)c3)cc2C(=O)O)cc1
7.33

For CCCCc1ccc(S(=O)(=O)Nc2ccc(NC(=O)CCC(=O)Nc3ccc(NS(=O)(=O)c4ccc(N5CCOCC5)nc4)c(C(=O)O)c3)cc2C(=O)O)cc1 , what is its reported pEC50?
6.73

Record request: pEC50 value, item CCCCc1ccc(S(=O)(=O)Nc2ccc(NC(=O)CCC(=O)Nc3ccc(NS(=O)(=O)c4ccc(CCCC)cc4)c(S(=O)(=O)O)c3)cc2C(=O)O)cc1
7.43

Please report the recorded pEC50 for CCCCc1ccc(S(=O)(=O)Nc2ccc(NC(=O)/C=C\C(=O)Nc3ccc(NS(=O)(=O)c4ccc(CCCC)cc4)c(C(=O)O)c3)cc2C(=O)O)cc1 .
7.57

Would you mind telling me what pEC50 value was observed for CCCCc1ccc(S(=O)(=O)Nc2ccc(NC(=O)CCC(=O)Nc3ccc(NS(=O)(=O)c4ccc(CCCC)cn4)c(C(=O)O)c3)cc2C(=O)O)nc1 ?
5.75

Entry O=C(O)c1cc(CN2CC(COc3ccc(NS(=O)(=O)c4cnn(-c5ccc(Cl)cc5)c4)c(C(=O)O)c3)C2)ccc1NS(=O)(=O)c1cnn(-c2ccc(Cl)cc2)c1 : reported pEC50 = ?
6.24

I would be grateful if you could share the reported pEC50 for O=C(O)c1cc(CNC2CN(Cc3ccc(NS(=O)(=O)c4cnn(-c5ccc(Cl)cc5)c4)c(C(=O)O)c3)C2)ccc1NS(=O)(=O)c1cnn(-c2ccc(Cl)cc2)c1 .
6.05

Consider the compound CCCCc1ccc(S(=O)(=O)Nc2ccc(NC(=O)CCC(=O)Nc3ccc(NS(=O)(=O)c4ccc(CCCC)cc4)c(-c4nn[nH]n4)c3)cc2C(=O)O)cc1 and give its measured pEC50.
6.54

# get_value(readout='pEC50', item= CCCCc1ccc(S(=O)(=O)Nc2ccc(NC(=O)CCC(=O)Nc3ccc(NS(=O)(=O)c4ccc(CCCC)cc4)c(C(=O)O)c3)cc2O)cc1 )
6.20

# pEC50 lookup, item CCCCc1ccc(S(=O)(=O)Nc2ccc(NC(=O)CCNC(=O)c3ccc(NS(=O)(=O)c4ccc(CCCC)cc4)c(C(=O)O)c3)cc2C(=O)O)cc1
7.08

Look up pEC50: CCCCc1ccc(S(=O)(=O)Nc2ccc(NC(=O)CCC(=O)Nc3ccc(NS(=O)(=O)c4ccc(CCCC)cc4)c(C(=O)O)c3)cc2F)cc1
5.93

---

experiment: Inhibition of wildtype Acinetobacter baumannii MsbA preincubated for 30 mins followed by ATP addition and measured after 1 hrs by Transcreener ADP2 F1 assay
observable: EC50

What value of EC50 has been recorded for this entry: O=C(O)c1cc(CN2CC(Oc3ccc(NS(=O)(=O)c4ccc(-c5ccc(F)cc5)s4)c(C(=O)O)c3)C2)ccc1NS(=O)(=O)c1cnn(-c2ccc(Cl)cc2)c1
< 10 nM

Fill blank: measured EC50 of the compound CCCCc1ccc(C(=O)Nc2ccc(NC(=O)CCC(=O)Nc3ccc(NS(=O)(=O)c4ccc(CCCC)cc4)c(C(=O)O)c3)cc2C(=O)O)cc1 is ____.
> 198000 nM

Please look up its EC50: O=C(CCCOc1ccc(NS(=O)(=O)c2cnn(-c3ccc(Cl)cc3)c2)c(C(=O)O)c1)Nc1ccc(NS(=O)(=O)c2cnn(-c3ccc(Cl)cc3)c2)c(C(=O)O)c1
< 10 nM

I would be grateful if you could share the reported EC50 for O=C(CCCOc1ccc(NS(=O)(=O)c2ccc(-c3ccc(C(F)(F)F)cc3)cc2)c(C(=O)O)c1)Nc1ccc(NS(=O)(=O)c2ccc(-c3ccc(C(F)(F)F)cc3)cc2)c(C(=O)O)c1 .
< 10 nM

Please report the recorded EC50 for O=C(CCCOc1ccc(NS(=O)(=O)c2ccc(-c3ccc(Cl)cc3)s2)c(C(=O)O)c1)Nc1ccc(NS(=O)(=O)c2ccc(-c3ccc(Cl)cc3)s2)c(C(=O)O)c1 .
< 10 nM

Value lookup for EC50; key = CCCCc1ccc(S(=O)(=O)Nc2ccc(NC/C=C\CNc3ccc(NS(=O)(=O)c4ccc(CCCC)cc4)c(C(=O)O)c3)cc2C(=O)O)cc1
> 198000 nM
